- test.target: T1, chromodomain of CBX7 (human, UniProt O95931 8-62)
- T1 sequence (looked up): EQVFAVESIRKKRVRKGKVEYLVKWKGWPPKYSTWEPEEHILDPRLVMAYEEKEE
- assay.overview: AlphaScreen or HTRF
* marks the point of attachment. diethyl = not defined here; Bz = O=C(c1ccccc1)*
Field 'label' (enum: 1.0 / 0.0). Set to 1.0 when IC50 is strictly under 200 nM; else 0.0.

[[record]]
binder = "{2‑Me‑Bz}-FALK(diethyl)S-OMe (reading uncertain) [compound 28]"
class = 0.0

[[record]]
binder = "{t‑butylbenzyl}-FALK(diethyl)S-OMe (reading uncertain) [compound 36]"
class = 0.0

[[record]]
binder = "{4‑Me‑Bz}-FALK(diethyl)S-OMe (reading uncertain) [compound 30]"
class = 0.0

[[record]]
binder = "Bz-FALK(diethyl)S-OMe (reading uncertain) [compound 27]"
class = 0.0

[[record]]
binder = "{4‑CO2Me‑Bz}-FALK(diethyl)S-OMe (reading uncertain) [compound 33]"
class = 0.0

[[record]]
binder = "{3‑Me‑Bz}-FALK(diethyl)S-OMe (reading uncertain) [compound 29]"
class = 0.0

[[record]]
binder = "FALKS (N-terminal para-t-butyl benzoyl cap; diethyl-lysine in lieu of Kme3; C-terminal methyl ester) [compound 1 (UNC3866)]"
class = 1.0

[[record]]
binder = "{4‑CF3‑Bz}-FALK(diethyl)S-OMe (reading uncertain) [compound 34]"
class = 0.0

[[record]]
binder = "{4‑Et‑Bz}-FALK(diethyl)S-OMe (reading uncertain) [compound 31]"
class = 1.0

[[record]]
binder = "{4‑iPr‑Bz}-FALK(diethyl)S-OMe (reading uncertain) [compound 32]"
class = 1.0

